Test system: SK-MEL-2
experiment: NCI tumour cell line growth inhibition, 48 h
The source made the active and inactive calls. No stated cut-off is given here; in the data, active = GI50 up to about 1.1 µM and inactive = higher.
Classes used: active, inactive

- C=CCCC1(C)CCCNC1=S (stereo unspecified): inactive
- O=C1/C(=C\c2ccccc2)CN(C(=O)CCN2CCCCC2)C/C1=C/c1ccccc1: inactive
- COc1cccc2c1Cc1cc(-c3ccccc3)[n+](C)n1-2: inactive
- N#CSC/C(Cl)=C/Cl.N#CSC/C(Cl)=C\Cl: inactive
- Cc1ccc(-c2cc(-c3ccccc3)nc(N)n2)c(O)c1: inactive
- CN(C)CCC(=O)N1C/C(=C\c2ccc(Cl)c(Cl)c2)C(=O)/C(=C/c2ccc(Cl)c(Cl)c2)C1: inactive
- O=C1Oc2ccccc2C(=O)/C1=C/N1C(=O)/C(=C/c2ccc([N+](=O)[O-])cc2)SC1=S: inactive
- O=[N+]([O-])c1cccc(C2=NN(c3ccccc3)C3c4cc(Br)ccc4OCC23)c1 (stereo unspecified): inactive
- O=C(c1cccc2cc(O)ccc12)c1cn(CCN2CCOCC2)c2ccccc12: inactive
- O[C@H]1[C@H](O)[C@@H](O)CN2CC[C@H](O)[C@H]12: inactive
- COc1cccc2c(=O)c3c(n(C)c12)OC(C(C)C)C3 (stereo unspecified): inactive
- CC1(C)[C@@H](Cn2ccc(=O)[nH]c2=O)CC[C@@]1(C)CO: inactive
- CC1(C)CC[C@]2(C(=O)O)[C@H](O)C[C@]3(C)C(=CC[C@@H]4[C@@]5(C)CC[C@H](OC6OC(C(=O)O)C(O)C(O)C6O)C(C)(C)[C@@H]5CC[C@]43C)[C@@H]2C1 (stereo partly specified): inactive
- CCN(CC)c1ccc2cc(C(=O)Nc3ccccn3)c(=N)oc2c1: inactive
- O=C(O)CN(c1ccccc1)S(=O)(=O)c1ccc(Cl)cc1: inactive
- COC(=O)c1ccccc1C1=C([N+](=O)[O-])C(c2ccccc2)C(C#N)=C(N)O1 (stereo unspecified): inactive
- Cc1c(C)c2c(c(N)c1C#N)C(=O)N(Nc1ccccc1)C2=O: inactive
- N#Cc1c(N)oc2cc3c(C#N)c(N)oc3cc12: inactive
- CC(=O)Nc1ccc(C2CC(c3ccc([N+](=O)[O-])cc3)=Nc3ccccc3S2)cc1 (stereo unspecified): inactive
- O=[N+]([O-])c1cc(Cl)ccc1OCc1ccccc1: inactive
- OC1C=C2C3CN(Cc4cc5c(cc43)OCO5)[C@H]2C[C@@H]1O (stereo partly specified): inactive
- Nc1ccc(Oc2ccc(C34CC5CC(C3)CC(c3ccc(Oc6ccc(N)cc6C(F)(F)F)cc3)(C5)C4)cc2)c(C(F)(F)F)c1: inactive
- CCC(C(=O)O)c1ccc(OCc2ccccc2)cc1 (stereo unspecified): inactive
- CN(C)c1ccc(/C=C/c2ccnc3ccccc23)cc1: inactive
- O=C(O)CS: inactive
- N=c1[nH]cnc2c1nnn2C1C=CC(COS(N)(=O)=O)C1 (stereo unspecified): inactive
- Nc1nc(=O)n(C2OC(CO)C(O)C2O)cc1F (stereo unspecified): inactive
- N#Cc1ccc2[nH]c3c(c2c1)CC(=O)Nc1ccccc1-3: inactive
- CCN(CC)CCCC(C)NC(=O)c1ccc2c(c1)C(=O)c1ccccc1C2=O (stereo unspecified): inactive
- Cc1[nH]c2ccccc2c1C1Cc2ccccc2N1C(=O)/C=C/C(=O)O (stereo unspecified): inactive
- FC(F)(F)c1ccccc1C1SCc2nc3ccccc3n21 (stereo unspecified): inactive
- Cc1ccc(NC(=O)CC(=O)n2nc(C)c(/N=N/c3ccccc3C(=O)O)c2C)cc1: inactive
- NC(=O)c1cc(C2OC(CO)C(O)C2O)nn1-c1ccc([N+](=O)[O-])cc1 (stereo unspecified): inactive
- CC(=O)OC(C)(C)/C=C/C(=O)[C@](C)(O)[C@H]1[C@H](O)C[C@@]2(C)[C@@H]3CC=C4[C@@H](C[C@H](O)C(=O)C4(C)C)[C@]3(C)C(=O)C[C@]12C: active
- COC(=O)C1(N2CCOCC2)CCC([C@@H](c2ccccc2)C(C)[N+](=O)[O-])C1 (stereo partly specified): inactive
- COc1cc(C)c(C2NC(=O)c3ccccc3N2)cc1C (stereo unspecified): active
- C1=C\SS/C=C\SS/1: inactive
- O=C1CCc2cc3c(cc21)CC1(Cc2ccccc2C1)C3: inactive
- CCOC(=O)CC1c2ccc(O)cc2OC(=O)C1c1ccc([N+](=O)[O-])cc1 (stereo unspecified): inactive
- Cc1c(/C=N/NC(=S)Nc2ccccc2Cl)c(=O)n(-c2ccccc2)n1C: inactive
- O=C(O)CC1OCC=C2C[N+]3([O-])CCC45c6ccccc6NC4C1C2CC53 (stereo unspecified): inactive
